The measured values listed here are drawn from ChEMBL document CHEMBL5608177.

# PROCEDURE DETAILS: Toxicity in Zebrafish embryo assessed as reduction in survival rate at >= 30 uM incubated for 48 hrs by microscopic analysis relative to control
# Design: species or system Danio rerio
# ASSAY CONDITIONS: zebrafish embryos

{"columns": ["SMILES REPR", "survival at 48 h, 30 µM"],
 "data": [
  ["C=C(C)[C@@H]1CC[C@]2(C(=O)OC)CC[C@]3(C)[C@H](CC[C@@H]4[C@@]5(C)C[C@@H](Cc6cn([C@]7(CO)O[C@@H](n8ccc(O)nc8=O)[C@@H](F)[C@@H]7O)nn6)C(=O)C(C)(C)[C@@H]5CC[C@]43C)[C@@H]12", "< 25%"]
]}

* * *

Entries and their measured IC50 follow.
# Test system: HepG2
# PROCEDURE DETAILS: Antiproliferative activity against human HepG2 cells assessed as inhibition of cell growth incubated for 48 hrs by CCK-8 reagent based spectrophotometric analysis
# Assay type: functional
# ASSAY CONDITIONS: HepG2, 48 h

{"columns": ["SMILES REPR", "INEQUALITY OPERATOR", "IC50 / µM"],
 "data": [
  ["C=C(C)[C@@H]1CC[C@]2(C(=O)OC)CC[C@]3(C)[C@H](CC[C@@H]4[C@@]5(C)C[C@@H](Cc6cn([C@]7(CO)O[C@@H](n8ccc(N)nc8=O)[C@H](O)[C@@H]7O)nn6)C(=O)C(C)(C)[C@@H]5CC[C@]43C)[C@@H]12", ">", 100],
  ["C=C(C)[C@@H]1CC[C@]2(C(=O)OC)CC[C@]3(C)[C@H](CC[C@@H]4[C@@]5(C)C[C@@H](Cc6cn([C@]7(CO)O[C@@H](n8ccc(O)nc8=O)[C@@H](F)[C@@H]7O)nn6)[C@H](O)C(C)(C)[C@@H]5CC[C@]43C)[C@@H]12", "=", 37.5],
  ["C=C(C)[C@@H]1CC[C@]2(C(=O)OC)CC[C@]3(C)[C@H](CC[C@@H]4[C@@]5(C)C[C@@H](Cc6cn([C@]7(CO)O[C@@H](n8ccc(N)nc8=O)[C@@H](F)[C@@H]7O)nn6)C(=O)C(C)(C)[C@@H]5CC[C@]43C)[C@@H]12", "=", 69.9],
  ["C=C(C)[C@@H]1CC[C@]2(C(=O)O)CC[C@]3(C)[C@H](CC[C@@H]4[C@@]5(C)CC[C@H](O)C(C)(C)[C@@H]5CC[C@]43C)[C@@H]12", "=", 40],
  ["C=C(C)[C@@H]1CC[C@]2(C(=O)O)CC[C@]3(C)[C@H](CC[C@@H]4[C@@]5(C)C[C@@H](Cc6cn([C@]7(CO)O[C@@H](n8ccc(N)nc8=O)[C@@H](F)[C@@H]7O)nn6)[C@H](O)C(C)(C)[C@@H]5CC[C@]43C)[C@@H]12", ">", 100],
  ["C=C(C)[C@@H]1CC[C@]2(C(=O)OC)CC[C@]3(C)[C@H](CC[C@@H]4[C@@]5(C)C[C@@H](Cc6cn([C@]7(CO)O[C@@H](n8ccc(O)nc8=O)[C@@H](F)[C@@H]7O)nn6)C(=O)C(C)(C)[C@@H]5CC[C@]43C)[C@@H]12", "=", 23.7],
  ["C=C(C)[C@@H]1CC[C@]2(C(=O)O)CC[C@]3(C)[C@H](CC[C@@H]4[C@@]5(C)C[C@@H](Cc6cn([C@]7(CO)O[C@@H](n8ccc(O)nc8=O)[C@@H](F)[C@@H]7O)nn6)[C@H](O)C(C)(C)[C@@H]5CC[C@]43C)[C@@H]12", ">", 100],
  ["C=C(C)[C@@H]1CC[C@]2(C(=O)OC)CC[C@]3(C)[C@H](CC[C@@H]4[C@@]5(C)C[C@@H](Cc6cn([C@]7(CO)O[C@@H](n8ccc(O)nc8=O)[C@H](O)[C@@H]7O)nn6)[C@H](O)C(C)(C)[C@@H]5CC[C@]43C)[C@@H]12", "=", 44.6]
]}
